Values from patent US7365080B2

Target: L-Selectin (Homo sapiens)
Construct: purchased Research and Development Systems 728-LS
Sequence (P14151 39-332 limits assumed): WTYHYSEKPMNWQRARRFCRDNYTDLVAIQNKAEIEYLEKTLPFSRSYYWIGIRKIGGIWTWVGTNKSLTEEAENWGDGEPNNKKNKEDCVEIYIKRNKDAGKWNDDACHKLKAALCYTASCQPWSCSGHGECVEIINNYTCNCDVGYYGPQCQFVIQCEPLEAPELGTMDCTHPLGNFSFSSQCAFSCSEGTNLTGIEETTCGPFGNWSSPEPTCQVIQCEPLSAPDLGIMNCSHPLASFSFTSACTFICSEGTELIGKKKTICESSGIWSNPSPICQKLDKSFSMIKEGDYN
Assay: ELISA: inhibition of L-selectin/IgG binding to immobilized heparin (Heparin-BSA)
Details: L-Selectin binding to heparin; 50 μM
quantity_kind: inhibition at 50 µM (%)
Your answer is read as %, so omit the unit and give the number.

Known results for compounds:
CCCCN(CCCC)S(=O)(=O)c1ccc(C(=O)Nc2sc3c(c2-c2nc4ccccc4s2)CCN(C)C3)cc1 [Compound 31]	27
CC(C)N1CCc2c(sc(NC(=O)c3ccc(S(=O)(=O)N4CCCCC4C)cc3)c2-c2nc3ccccc3s2)C1 (stereo not shown) [Compound 45]	24
CC1CCN(S(=O)(=O)c2ccc(C(=O)Nc3sc4c(c3-c3nc5ccccc5s3)CCN(C)C4)cc2)CC1 [Compound 38]	33

Here is another compound to look at.
Using the record for CN1CCc2c(sc(NC(=O)c3ccc(S(=O)(=O)N4CCOCC4)cc3)c2-c2nc3ccccc3s2)C1 [Compound 9] , report its inhibition at 50 µM.
52
